Provide the reported log10 IC50 of each item.
tested_target: Acetylcholinesterase (Homo sapiens, UniProt P22303)
Sequence (P22303 whole entry): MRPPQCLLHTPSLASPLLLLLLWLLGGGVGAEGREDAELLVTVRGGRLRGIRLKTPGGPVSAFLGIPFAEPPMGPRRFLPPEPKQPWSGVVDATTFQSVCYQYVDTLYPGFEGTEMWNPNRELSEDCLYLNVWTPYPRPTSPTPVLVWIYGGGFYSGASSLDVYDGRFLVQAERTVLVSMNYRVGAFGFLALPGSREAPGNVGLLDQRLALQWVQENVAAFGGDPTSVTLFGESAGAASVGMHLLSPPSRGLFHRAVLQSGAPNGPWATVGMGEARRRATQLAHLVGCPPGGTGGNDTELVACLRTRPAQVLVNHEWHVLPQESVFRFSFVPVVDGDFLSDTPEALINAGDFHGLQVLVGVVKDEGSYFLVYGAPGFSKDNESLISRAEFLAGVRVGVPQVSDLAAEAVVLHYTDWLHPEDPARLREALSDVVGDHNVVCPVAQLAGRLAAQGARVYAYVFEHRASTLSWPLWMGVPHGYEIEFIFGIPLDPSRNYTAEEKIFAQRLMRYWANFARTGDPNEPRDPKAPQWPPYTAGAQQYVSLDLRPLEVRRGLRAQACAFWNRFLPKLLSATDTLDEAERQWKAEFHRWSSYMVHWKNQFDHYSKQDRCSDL
assay_protocol: Inhibition of human recombinant AChE by Ellman's assay
The common logarithm of IC50 in µM is what is listed.

Which log10 IC50 value belongs to CC(C)Cc1ccc(C(C)C(=O)NCCCNCCCNC2=CC(=O)C(NCCCNCCCNC(=O)C(C)c3ccc(CC(C)C)cc3)=CC2=O)cc1 (centres undefined) ? -0.22

Consider the molecule O=C(Cc1ccccc1Nc1c(Cl)cccc1Cl)NCCCNCCCNC1=CC(=O)C(NCCCNCCCNC(=O)Cc2ccccc2Nc2c(Cl)cccc2Cl)=CC1=O and give its measured log10 IC50. 1.19

Report log10 IC50 for C[C@@H](C(=O)NCCCNCCCNC1=CC(=O)C(NCCCNCCCNC(=O)[C@H](C)c2ccc(-c3ccccc3)c(F)c2)=CC1=O)c1ccc(-c2ccccc2)c(F)c1 please. 1.44

# get_value(readout='log10 IC50', item= CC1=C(CC(=O)NCCCNCCCNC2=CC(=O)C(NCCCNCCCNC(=O)CC3=C(C)/C(=C\c4ccc([S+](C)[O-])cc4)c4ccc(F)cc43)=CC2=O)c2cc(F)ccc2/C1=C/c1ccc([S+](C)[O-])cc1 (centres undefined) ) 0.98

I'd like to know its log10 IC50. The molecule in question is COc1ccc2c(c1)c(CC(=O)NCCCNCCCNC1=CC(=O)C(NCCCNCCCNC(=O)Cc3c(C)n(C(=O)c4ccc(Cl)cc4)c4ccc(OC)cc34)=CC1=O)c(C)n2C(=O)c1ccc(Cl)cc1 1.01

Any idea what its log10 IC50 is? The molecule is CC(C(=O)NCCCNCCCNC1=CC(=O)c2ccccc2C1=O)c1ccc(-c2ccccc2)c(F)c1 (centres undefined) 2.03

Give its log10 IC50 value. Item: C[C@H](C(=O)NCCCNCCCNC1=CC(=O)C(NCCCNCCCNC(=O)[C@@H](C)c2ccc(-c3ccccc3)c(F)c2)=CC1=O)c1ccc(-c2ccccc2)c(F)c1 0.46
